Biological target: UniProtKB Q8VNN2
Sequence (Q8VNN2 whole entry, looked up): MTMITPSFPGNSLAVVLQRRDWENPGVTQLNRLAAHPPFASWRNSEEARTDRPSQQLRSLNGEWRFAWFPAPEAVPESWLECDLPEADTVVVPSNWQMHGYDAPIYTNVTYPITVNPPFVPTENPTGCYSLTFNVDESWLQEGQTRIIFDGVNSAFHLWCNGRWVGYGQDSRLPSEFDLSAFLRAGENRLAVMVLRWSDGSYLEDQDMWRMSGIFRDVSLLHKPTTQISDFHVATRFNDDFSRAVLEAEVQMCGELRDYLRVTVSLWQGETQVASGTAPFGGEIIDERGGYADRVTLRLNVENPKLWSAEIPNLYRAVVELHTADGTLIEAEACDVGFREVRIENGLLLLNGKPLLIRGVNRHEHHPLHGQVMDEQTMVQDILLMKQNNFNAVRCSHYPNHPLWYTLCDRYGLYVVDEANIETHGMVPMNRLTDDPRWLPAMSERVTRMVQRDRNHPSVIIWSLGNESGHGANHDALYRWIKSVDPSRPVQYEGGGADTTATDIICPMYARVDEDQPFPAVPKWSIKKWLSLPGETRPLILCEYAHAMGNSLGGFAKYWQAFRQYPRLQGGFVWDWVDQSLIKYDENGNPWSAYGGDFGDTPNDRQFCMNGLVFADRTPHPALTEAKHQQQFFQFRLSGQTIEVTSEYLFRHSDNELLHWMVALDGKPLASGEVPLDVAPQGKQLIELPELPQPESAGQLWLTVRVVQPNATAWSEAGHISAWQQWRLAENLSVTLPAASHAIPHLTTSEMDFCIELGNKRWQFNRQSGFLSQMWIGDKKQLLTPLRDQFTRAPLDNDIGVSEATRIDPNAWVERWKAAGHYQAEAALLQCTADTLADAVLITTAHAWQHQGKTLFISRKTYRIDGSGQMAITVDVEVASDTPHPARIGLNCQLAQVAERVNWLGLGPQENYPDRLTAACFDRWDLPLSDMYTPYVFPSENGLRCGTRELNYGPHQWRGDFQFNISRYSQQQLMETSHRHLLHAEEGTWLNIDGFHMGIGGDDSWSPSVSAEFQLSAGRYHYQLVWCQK
Test: potency against CXCR6 with APJ panel – cell-based, beta-arrestin, DiscoveRx, uHTS hits, dose response (AID 624129)
Details: CXCR6 beta-arrestin (DiscoveRx) antagonist cell assay, b-galactosidase, dose range 1
Calls of active or inactive are those of the source. The rule behind the calls is not given here.
Log the outcome using a class from t = active, f = inactive

Solved entries:
Cc1c(CCCl)c(Cl)n2c(nc3ccccc32)c1C#N | f
COc1ccc([N+](=O)[O-])c(S(=O)(=O)c2ccccc2)n1 | f
CCC(=O)OCCNc1cc(Sc2nc3ccccc3[nH]2)c2nonc2c1[N+](=O)[O-] | t
COc1ccc(OC)c2sc(N(CCCN(C)C)C(=O)CCS(=O)(=O)c3ccccc3)nc12 | f

Field: next molecule
Field: outcome | Entry: O=C1C=CC2(O[C@H](c3ccccc3)[C@@H](c3ccccc3)O2)[C@H](Sc2ccccc2O)C1
f

###

Target: C-X-C chemokine receptor type 6 (Homo sapiens) (UniProt O00574)
Sequence (O00574 whole entry, looked up): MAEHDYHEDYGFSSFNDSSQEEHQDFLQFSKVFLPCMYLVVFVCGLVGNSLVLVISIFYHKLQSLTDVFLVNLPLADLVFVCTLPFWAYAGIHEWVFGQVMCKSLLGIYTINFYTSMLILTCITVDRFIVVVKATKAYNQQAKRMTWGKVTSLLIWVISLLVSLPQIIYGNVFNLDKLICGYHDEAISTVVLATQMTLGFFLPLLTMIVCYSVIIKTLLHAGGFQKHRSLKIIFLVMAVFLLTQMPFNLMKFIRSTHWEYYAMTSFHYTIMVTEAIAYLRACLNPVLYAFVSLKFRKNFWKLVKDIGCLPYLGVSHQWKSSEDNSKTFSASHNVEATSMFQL
Test: potency against CXCR6 with APJ panel – cell-based, beta-arrestin, DiscoveRx, uHTS hits, dose response (AID 624129)
Conditions: CXCR6 beta-arrestin (DiscoveRx) antagonist cell assay, CXCR6, dose range 1, mean IC50 across replicates
Each entry below lists one item and its recorded IC50 value.

Consider the following illustrative entries.
CC(C)[C@H](NC(=O)OC(C)(C)C)c1nnc(S(=O)(=O)Cc2c(F)cccc2Cl)o1 | 13.3 µM
FC(F)(F)c1cnc(NNC(=S)Nc2ccccc2)c(Cl)c1 | 14.9 µM
CCc1cc2c(=O)[nH]c(-c3ccccn3)nc2s1 | 1.76 µM
C=CS(=O)(=O)c1c2cc(OC)ccc2nc2ccc(OC)cc12 | 12.5 µM
Cc1cc(Cl)n2c(nc3cc(F)c(F)cc32)c1C#N | 24.8 µM

Look up IC50 for this compound: CCOC(=O)CSc1cccc2cccnc12
5.86 µM

Please give the measured IC50 for this compound: O=C(NNC(=O)c1cc(-c2ccccc2)nn1-c1ccccc1)c1ccccc1
11.5 µM

// lookup IC50 for O=C(NC(=S)N(CCc1ccccc1)CCc1ccccc1)c1ccco1
26 µM

Consider the compound shown here: COc1ccc(/C=C(/C(=O)c2cccs2)N2C=CC=CC2=C(C#N)C#N)cc1 What is its recorded IC50?
19.9 µM

Sample C=CCOc1ccc(C=NNc2ccc(S(=O)(=O)Nc3ccccc3C(=O)O)cc2[N+](=O)[O-])cc1OC — what was its IC50?
28.8 µM

For the compound shown here, O=[N+]([O-])c1c(NCCCO)cc(Sc2ccc(Cl)cc2)c2nonc12 , give the reported IC50.
11.3 µM

// query IC50 value for entry C=C1CCN([C@@H](Cc2ccccc2)C(=O)NCCC(C)C)S(=O)(=O)c2ccccc21
15.2 µM

Data request, read-out IC50, for Cc1ccc(C(=O)/C=C/C(=O)c2ccc(C)cc2)cc1
> 80 µM

What value of IC50 has been recorded for this entry: CCCOc1ccc(CN(CCC#N)C(=S)NC(=O)c2ccccc2)cc1
20 µM

Which IC50 value belongs to COc1cc(C2C(C#N)=C(N)Oc3n[nH]c(-c4cccnc4)c32)cc(Br)c1O (configuration not stated) ?
28.7 µM

What does the data say about its IC50? Entry: Cn1c(=O)n(C)c2cc([N+](=O)[O-])c(N3CCN(C(=O)c4cccc(Cl)c4)CC3)cc21
11.2 µM

Any idea what its IC50 is? The compound is CCOc1cc(/C=C2\N=C(SCC)SC2=O)cc([N+](=O)[O-])c1OC(C)=O
39.3 µM

Given COc1cc(C2C(C#N)=C(N)Oc3n[nH]c(-c4cccs4)c32)cc(OC)c1O (configuration not stated) , state its recorded IC50.
47.3 µM

Requested read-out: IC50. Entry: CN(C)CC1CC/C(=C\c2ccc(O)cc2)C1=O (configuration not stated)
14 µM

Item C=C1CC(COc2cc(=O)oc3ccccc23)(c2ccccc2)OC1=O (configuration not stated) has what recorded IC50?
6.87 µM

For the compound shown here, CN(C)CCCN(C(=O)CCS(=O)(=O)c1ccccc1)c1nc2cc3c(cc2s1)OCO3 , give the reported IC50.
14.9 µM

Suppose we examine the compound COC(=O)C1=C(C(=O)OC)C2OC1c1cc3ccccc3cc12 ; what IC50 value has been reported?
14.5 µM

Provenance of the data: PubChem BioAssay AID624129
